experiment: NCI Yeast Anticancer Drug Screen. Data for the mec2-1 strain (AID 157); conditions: S. cerevisiae mec2-1 strain, at 5.0 µM (retest, dose inferred, filed as 0.5)
About 79,000 compounds went through this panel and 15% of them were active in at least one assay; those are over-represented in the sample as a whole. Calls of active or inactive are those of the source. Cut-off read from the data, not from the text of the source: active = growth inhibition above about 70%; inactive = the rest.
Select the correct class. Options are TRUE (active), FALSE (inactive) and nothing else.

Answered examples (5):
CCCCN(Cc1ccccc1)CC(O)c1cc2c(c3ccccc13)CCCC2 (stereo not drawn)    FALSE
CC(=O)OC1CCC2(C)C3CCC4(C)C(CCC4(Br)C(=O)CBr)C3CC(Br)C2(Br)C1 (stereo not drawn)    FALSE
C(=C\[P+](c1ccccc1)(c1ccccc1)c1ccccc1)/c1ccccc1    TRUE
CC(C)OC(=O)c1ccc(CCC2=CC(=O)C=CC2=O)cc1    FALSE
NNc1c(F)c(F)c(-c2c(F)c(F)c(NN)c(F)c2F)c(F)c1F    FALSE

Enquiry: # lookup: test call for `CN(C)C(=S)/N=c1\ssc(=S)n1Cc1ccco1`
Return: FALSE

Enquiry: # lookup: test call for `C#CCNC(C)(C)C`
Return: FALSE

Enquiry: # lookup: test call for `c1ccc(CC(Cc2ccccc2)c2cccnc2)cc1`
Return: FALSE

Enquiry: # lookup: test call for `O=C1C(=Cc2ccccc2O)N=C(c2ccccc2)N1n1c(-c2ccccc2)nc2ccccc2c1=O`
Return: FALSE

Enquiry: # lookup: test call for `CCc1ccccc1NC1=C(Cl)C(=O)c2ccccc2C1=O`
Return: TRUE

Enquiry: # lookup: test call for `CC(=O)/C(=C\c1ccc(N(C)C)cc1)C(C)=[N+](C)C(=O)c1c(/[N+](C)=C(C)\C(=C\c2ccc(N(C)C)cc2)C(C)=O)ncn1C`
Return: FALSE

Enquiry: # lookup: test call for `CSc1cc2c(cc1N)Cc1ccccc1-2`
Return: FALSE

Enquiry: # lookup: test call for `COC(=O)C(=O)N(c1cc(C)ccc1C)c1cc(C)ccc1C`
Return: FALSE

Enquiry: # lookup: test call for `O=C(O)CCC(c1ccccc1)(c1ccccc1)c1ccccc1`
Return: FALSE

* * *

Would you mind telling me the reported growth inhibition of each entry?
Assay: NCI Yeast Anticancer Drug Screen. Data for the cln2 rad14 strain (AID 165);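 note: 0% = growth equal to vehicle treated cultures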
Settings: S. cerevisiae cln2 rad14 strain, at 5.0 µM (retest, dose inferred, filed as 0.5), stronger effect = higher value
Procedure: Growth inhibition of yeast strains with defined genetic alterations is measured as a screen for potential anti-cancer activity. Selected strains with alterations in DNA damage repair or cell cycle control were exposed to compounds and growth inhibition was measured relative to vehicle treated controls. The strain used in this assay is cln2 rad14
This is part of a sample that, as a whole, favours compounds with a hit. Of some 79,000 tested, about 15% had one in any assay.
Answers are plain numbers, in %.

These solved cases illustrate the format of a correct answer.
Cc1ccc(N=C2SC(=S)N(CCC[N+](C)(C)C)C2=Nc2ccc(C)cc2)cc1    12
O=[N+]([O-])c1ccc(Cl)cc1C(Nc1nncs1)Nc1nncs1    2
COC(=O)/C=C1/OC(c2ccccc2)=C(C)C1=O    -6
O=C(Oc1c(Cl)c(Cl)c(Cl)c(Cl)c1Cl)c1ccc(Cl)cc1    13
CCOC(=O)Cc1cc(=O)oc2c(CN3CCN(c4ccc(C)cc4)CC3)c(O)ccc12    8

Dear colleague, could you please provide growth inhibition for the molecules listed below?
1. COc1cc(C(c2cc3c(cc2O)OCO3)N2CCN(C(c3cc(OC)c(O)c(OC)c3)c3cc4c(cc3O)OCO4)CC2)cc(OC)c1O (stereo unspecified)
2. Cc1nn(C(=O)c2ccccc2O)c2c1C(c1ccc([N+](=O)[O-])cc1)SC(N)=N2 (stereo unspecified)
3. O=[N+]([O-])C(=C(Nc1ccccc1)Nc1ccccc1)/C(Cl)=C(\Cl)Br
4. CC(=O)Nc1ccc2c(c1)C(=Nc1ccc(F)cc1)c1ccccc1-2
5. COc1ccc(OC)c(C[P+](c2ccccc2)(c2ccccc2)c2ccccc2)c1
6. COC1/C=C\OC2(C)Oc3c(C)c(O)c4c(c3C2=O)C(=O)C=C(NC(=O)C(C)=C/C=C\C(C)C(O)C(C)C2OC(C)(C)OC(C1C)C2C)C4=O (stereo unspecified)
7. C1=C(C2=CCCc3ccccc32)c2ccccc2CC1
8. Cc1ccnc2[nH]c3ccccc3c(=O)c12

Return:
1. 0
2. -8
3. 22
4. -1
5. 92
6. 19
7. -4
8. 30

Dear colleague, could you please provide growth inhibition for the molecules listed below?
1. O=[N+]([O-])c1ccc(Sc2c3ccccc3nc3ccccc23)nc1
2. CCCCC(CC)(COC(C)=O)COC(C)=O
3. Cc1cc(S(=O)(=O)Nc2n[nH]c(-c3ccccn3)n2)c(S)cc1Cl
4. NCCOB1c2ccccc2Cc2ccccc21
5. CCN(CC)c1ccc(NC(CC(O)c2ccccc2)c2ccccc2)cc1 (stereo unspecified)
6. CN(C)c1ccc(C2CC(C)(N3CCCC3)Oc3cc4c(cc32)OCO4)cc1 (stereo unspecified)

Return:
1. 83
2. 2
3. -4
4. -2
5. -5
6. 9

Dear colleague, could you please provide growth inhibition for the molecules listed below?
1. Fc1ccc(CSC(=S)Nc2cccc(C(F)(F)F)c2)cc1
2. CC(=O)NS(=O)(=O)c1ccc(N=Cc2cc(Cl)cc(Cl)c2O)cc1

Return:
3
46
